Assay: Pharmacokinetic study in CD-1 mice (gavage, intravenous, intraperitoneal)
Type: in vivo
Conditions: male, CD-1, mouse, plasma, ip, 20 mg/kg, i.p. (20 mg/Kg per Table 3), individual animal; read-out: AUC last
Protocol: Nine CD-1 mice, male, weighing 18-22 g, were randomly divided into 3 groups with 3 mice in each group. The test compounds were administered by gavage, intravenously and intraperitoneally according to the following schemes. […] The drug was administered according to the above dosage, the time of administration were recorded, and 20 μL of blood was collected from the mouse femoral plexus at the above set time point and placed in a heparinized test tube and centrifuged immediately at 11000 rpm for 5 min. […]
reported_endpoint: AUC(0-t) (ng·h/mL)

chemical_string=Cc1cnc(C(=O)N[C@@H](CC2CCCCC2)C(=O)N[C@@H](C[C@@H]2CCCNC2=O)C(=O)C(=O)NCc2ccccc2)o1 data_value=4870
chemical_string=O=C(NCc1ccccc1)C(=O)[C@H](C[C@@H]1CCCNC1=O)NC(=O)[C@H](CC1CCCCC1)NC(=O)c1cc2ccccc2o1 data_value=6510
chemical_string=O=C(NCc1ccccc1)C(=O)[C@H](C[C@@H]1CCNC1=O)NC(=O)[C@H](CC1CCCCC1)NC(=O)c1ccc2ccccc2n1 data_value=13000
chemical_string=O=C(NCc1ccccc1)C(=O)[C@H](C[C@@H]1CCNC1=O)NC(=O)[C@H](CC1CCCCC1)NC(=O)c1cc2ccccc2o1 data_value=7650
chemical_string=Cc1cnc(C(=O)N[C@@H](CC2CCCCC2)C(=O)N[C@@H](C[C@@H]2CCNC2=O)C(=O)C(=O)NCc2ccccc2)o1 data_value=8260

---

Experiment: Pharmacokinetic study in CD-1 mice (gavage, intravenous, intraperitoneal)
Type: in vivo
Details: male, CD-1, mouse, plasma, ip, 20 mg/kg, i.p. (20 mg/Kg per Table 3), individual animal; read-out: AUC INF_obs
Could you label it Yes if measured AUC(0-inf) is 8000 ng·h/mL or higher, and No otherwise?

molecule="Cc1cnc(C(=O)N[C@@H](CC2CCCCC2)C(=O)N[C@@H](C[C@@H]2CCCNC2=O)C(=O)C(=O)NCc2ccccc2)o1 [Example A241]" classification=No
molecule="O=C(NCc1ccccc1)C(=O)[C@H](C[C@@H]1CCCNC1=O)NC(=O)[C@H](CC1CCCCC1)NC(=O)c1cc2ccccc2o1 [Example A13]" classification=No
molecule="O=C(NCc1ccccc1)C(=O)[C@H](C[C@@H]1CCNC1=O)NC(=O)[C@H](CC1CCCCC1)NC(=O)c1ccc2ccccc2n1 [Example A42]" classification=Yes
molecule="Cc1cnc(C(=O)N[C@@H](CC2CCCCC2)C(=O)N[C@@H](C[C@@H]2CCNC2=O)C(=O)C(=O)NCc2ccccc2)o1 [Example A242]" classification=Yes
molecule="O=C(NCc1ccccc1)C(=O)[C@H](C[C@@H]1CCNC1=O)NC(=O)[C@H](CC1CCCCC1)NC(=O)c1cc2ccccc2o1 [Example A9]" classification=No

---

Experiment: Pharmacokinetic study in CD-1 mice (gavage, intravenous, intraperitoneal)
Format: in vivo
Details: male, CD-1, mouse, plasma, po, 20 mg/kg, p.o. (gavage 20 mg/Kg per Table 3), Mean of 3 mice; read-out: MRT INF_obs
Items are presented alongside their recorded MRT inf.
reported_endpoint: MRT inf (h)

chemical_string=Cc1cnc(C(=O)N[C@@H](CC2CCCCC2)C(=O)N[C@@H](C[C@@H]2CCNC2=O)C(=O)C(=O)NCc2ccccc2)o1 data_value=2.56
chemical_string=O=C(NCc1ccccc1)C(=O)[C@H](C[C@@H]1CCNC1=O)NC(=O)[C@H](CC1CCCCC1)NC(=O)c1cc2ccccc2o1 data_value=1.77
chemical_string=O=C(NCc1ccccc1)C(=O)[C@H](C[C@@H]1CCNC1=O)NC(=O)[C@H](CC1CCCCC1)NC(=O)c1ccc2ccccc2n1 data_value=2.3
chemical_string=Cc1cnc(C(=O)N[C@@H](CC2CCCCC2)C(=O)N[C@@H](C[C@@H]2CCCNC2=O)C(=O)C(=O)NCc2ccccc2)o1 data_value=1.82

---

Experiment: Pharmacokinetic study in CD-1 mice (gavage, intravenous, intraperitoneal)
Type: in vivo
Conditions: male, CD-1, mouse, plasma, po, 20 mg/kg, p.o. (gavage 20 mg/Kg per Table 3), individual animal; read-out: MRT INF_obs
reported_endpoint: MRT inf (h)

compound="O=C(NCc1ccccc1)C(=O)[C@H](C[C@@H]1CCNC1=O)NC(=O)[C@H](CC1CCCCC1)NC(=O)c1ccc2ccccc2n1 [Example A42]" unit_symbol=h data_value=1.98
compound="Cc1cnc(C(=O)N[C@@H](CC2CCCCC2)C(=O)N[C@@H](C[C@@H]2CCNC2=O)C(=O)C(=O)NCc2ccccc2)o1 [Example A242]" unit_symbol=h data_value=2.13
compound="Cc1cnc(C(=O)N[C@@H](CC2CCCCC2)C(=O)N[C@@H](C[C@@H]2CCCNC2=O)C(=O)C(=O)NCc2ccccc2)o1 [Example A241]" unit_symbol=h data_value=2.12
compound="O=C(NCc1ccccc1)C(=O)[C@H](C[C@@H]1CCNC1=O)NC(=O)[C@H](CC1CCCCC1)NC(=O)c1cc2ccccc2o1 [Example A9]" unit_symbol=h data_value=1.35

---

Items are presented alongside their recorded Cmax.
Assay: Pharmacokinetic study in CD-1 mice (gavage, intravenous, intraperitoneal)
Format: in vivo
Details: male, CD-1, mouse, plasma, po, 20 mg/kg, p.o. (gavage 20 mg/Kg per Table 3), Mean of 3 mice
reported_endpoint: Cmax (ng/mL)

chemical_string=Cc1cnc(C(=O)N[C@@H](CC2CCCCC2)C(=O)N[C@@H](C[C@@H]2CCNC2=O)C(=O)C(=O)NCc2ccccc2)o1 reported_endpoint=Cmax data_value=409
chemical_string=O=C(NCc1ccccc1)C(=O)[C@H](C[C@@H]1CCNC1=O)NC(=O)[C@H](CC1CCCCC1)NC(=O)c1ccc2ccccc2n1 reported_endpoint=Cmax data_value=858
chemical_string=O=C(NCc1ccccc1)C(=O)[C@H](C[C@@H]1CCNC1=O)NC(=O)[C@H](CC1CCCCC1)NC(=O)c1cc2ccccc2o1 reported_endpoint=Cmax data_value=498
chemical_string=Cc1cnc(C(=O)N[C@@H](CC2CCCCC2)C(=O)N[C@@H](C[C@@H]2CCCNC2=O)C(=O)C(=O)NCc2ccccc2)o1 reported_endpoint=Cmax data_value=767

---

Assay: Pharmacokinetic study in CD-1 mice (gavage, intravenous, intraperitoneal)
Type: in vivo
Settings: male, CD-1, mouse, plasma, po, 20 mg/kg, p.o. (gavage 20 mg/Kg per Table 3), Mean of 3 mice
Items are presented alongside their recorded half-life.
reported_endpoint: half-life (h)

compound="Cc1cnc(C(=O)N[C@@H](CC2CCCCC2)C(=O)N[C@@H](C[C@@H]2CCCNC2=O)C(=O)C(=O)NCc2ccccc2)o1 [Example A241]" data_value=4.22
compound="O=C(NCc1ccccc1)C(=O)[C@H](C[C@@H]1CCNC1=O)NC(=O)[C@H](CC1CCCCC1)NC(=O)c1ccc2ccccc2n1 [Example A42]" data_value=5.81
compound="Cc1cnc(C(=O)N[C@@H](CC2CCCCC2)C(=O)N[C@@H](C[C@@H]2CCNC2=O)C(=O)C(=O)NCc2ccccc2)o1 [Example A242]" data_value=4.51
compound="O=C(NCc1ccccc1)C(=O)[C@H](C[C@@H]1CCNC1=O)NC(=O)[C@H](CC1CCCCC1)NC(=O)c1cc2ccccc2o1 [Example A9]" data_value=1.27
